- Test system: NCI-H460
- Assay overview: Cytotoxicity against human H460 cells assessed as surviving fraction at 10 ug/ml after 48 hrs by ELISA
- Format: functional
Measurement label: Activity
Answer using only a numeral; do not append any unit.

// known answers, use as guide
{"columns": ["Test smiles", "Measurement label", "Experimental result"],
 "data": [
  ["COC(=O)c1c(-c2ccc(OC)cc2)nc2[nH]c(=S)[nH]c(=O)c2c1C(=O)OC", "Activity", 0.743],
  ["CCOC(=O)c1c(-c2ccccc2)nc2[nH]c(=S)[nH]c(=O)c2c1C(=O)OCC", "Activity", 0.72],
  ["O=C(c1cccs1)c1cc(-c2ccccc2)nc2[nH]c(=S)[nH]c(=O)c12", "Activity", 0.641],
  ["CCOC(=O)c1cc(-c2ccc(OC)cc2)nc2[nH]c(=S)[nH]c(=O)c12", "Activity", 0.646]
]}

For the next question, use this molecule.
In: Need Activity, item `COc1ccc(-c2cc(C#N)c3c(=O)[nH]c(=S)[nH]c3n2)cc1`
Out: 0.808

* * *

Property: inhibition zone (IZ); scope: individual compounds
- System: Pseudomonas aeruginosa
- Assay overview: Antimicrobial activity against Pseudomonas aeruginosa
- Type: functional
Provide only the numeric value, understood in mm.

// known answers, use as guide
{"columns": ["Test smiles", "Unit annotation", "Experimental result"],
 "data": [
  ["N#Cc1cc(-c2ccccc2)nc2[nH]c(=S)[nH]c(=O)c12", "mm", 11],
  ["CC1(C)S[C@@H]2[C@H](NC(=O)[C@H](N)c3ccccc3)C(=O)N2[C@H]1C(=O)O", "mm", 19],
  ["COC(=O)c1c(-c2ccccc2)nc2[nH]c(=S)[nH]c(=O)c2c1C(=O)OC", "mm", 16]
]}

In: Form field - read-out: inhibition zone (IZ); system: Pseudomonas aeruginosa; submitted item: `COC(=O)c1c(-c2ccc(OC)cc2)nc2[nH]c(=S)[nH]c(=O)c2c1C(=O)OC`
Out: 14

In: Form field - read-out: inhibition zone (IZ); system: Pseudomonas aeruginosa; submitted item: `COc1ccc(-c2cc(C(=O)c3cccs3)c3c(=O)[nH]c(=S)[nH]c3n2)cc1`
Out: 11

In: Form field - read-out: inhibition zone (IZ); system: Pseudomonas aeruginosa; submitted item: `O=C(c1ccc2ccccc2c1)c1cc(-c2ccccc2)nc2[nH]c(=S)[nH]c(=O)c12`
Out: 11

In: Form field - read-out: inhibition zone (IZ); system: Pseudomonas aeruginosa; submitted item: `CCOC(=O)c1cc(-c2ccccc2)nc2[nH]c(=S)[nH]c(=O)c12`
Out: 11

In: Form field - read-out: inhibition zone (IZ); system: Pseudomonas aeruginosa; submitted item: `CCOC(=O)c1c(-c2ccccc2)nc2[nH]c(=S)[nH]c(=O)c2c1C(=O)OCC`
Out: 13

In: Form field - read-out: inhibition zone (IZ); system: Pseudomonas aeruginosa; submitted item: `COc1ccc(-c2cc(C(=O)c3ccco3)c3c(=O)[nH]c(=S)[nH]c3n2)cc1`
Out: 11

In: Form field - read-out: inhibition zone (IZ); system: Pseudomonas aeruginosa; submitted item: `O=C(c1cccs1)c1cc(-c2ccccc2)nc2[nH]c(=S)[nH]c(=O)c12`
Out: 12

* * *

- System: Neisseria gonorrhoeae
- Assay overview: Antimicrobial activity against Neisseria gonorrhoeae
- Format: functional
Measurement label: inhibition zone (IZ)

{"columns": ["Test smiles", "Tested target", "Measurement label", "Experimental result"],
 "data": [
  ["O=C(c1ccc2ccccc2c1)c1cc(-c2ccccc2)nc2[nH]c(=S)[nH]c(=O)c12", "Neisseria gonorrhoeae", "inhibition zone (IZ)", "12 mm"],
  ["O=C(c1cccs1)c1cc(-c2ccccc2)nc2[nH]c(=S)[nH]c(=O)c12", "Neisseria gonorrhoeae", "inhibition zone (IZ)", "13 mm"],
  ["COC(=O)c1c(-c2ccc(OC)cc2)nc2[nH]c(=S)[nH]c(=O)c2c1C(=O)OC", "Neisseria gonorrhoeae", "inhibition zone (IZ)", "14 mm"],
  ["CCOC(=O)c1c(-c2ccccc2)nc2[nH]c(=S)[nH]c(=O)c2c1C(=O)OCC", "Neisseria gonorrhoeae", "inhibition zone (IZ)", "13 mm"]
]}

For the next question, use this compound.
In: Need inhibition zone (IZ), item `COc1ccc(-c2cc(C(=O)c3ccco3)c3c(=O)[nH]c(=S)[nH]c3n2)cc1`
Out: 12 mm

* * *

- System: Staphylococcus aureus
- Assay overview: Antimicrobial activity against Staphylococcus aureus
- Type: functional
Measurement label: inhibition zone (IZ) (mm)
Provide only the numeric value, understood in mm.

// known answers, use as guide
{"columns": ["Test smiles", "inhibition zone (IZ) / mm"],
 "data": [
  ["CCOC(=O)c1cc(-c2ccccc2)nc2[nH]c(=S)[nH]c(=O)c12", 11],
  ["N#Cc1cc(-c2ccccc2)nc2[nH]c(=S)[nH]c(=O)c12", 11],
  ["O=C(c1ccc2ccccc2c1)c1cc(-c2ccccc2)nc2[nH]c(=S)[nH]c(=O)c12", 11],
  ["CC1(C)S[C@@H]2[C@H](NC(=O)[C@H](N)c3ccccc3)C(=O)N2[C@H]1C(=O)O", 20],
  ["O=C(c1cccs1)c1cc(-c2ccccc2)nc2[nH]c(=S)[nH]c(=O)c12", 12],
  ["COc1ccc(-c2cc(C(=O)c3cccs3)c3c(=O)[nH]c(=S)[nH]c3n2)cc1", 11]
]}

In: Need inhibition zone (IZ), item `COC(=O)c1c(-c2ccc(OC)cc2)nc2[nH]c(=S)[nH]c(=O)c2c1C(=O)OC`
Out: 15

In: Need inhibition zone (IZ), item `CCOC(=O)c1c(-c2ccccc2)nc2[nH]c(=S)[nH]c(=O)c2c1C(=O)OCC`
Out: 12

In: Need inhibition zone (IZ), item `COC(=O)c1c(-c2ccccc2)nc2[nH]c(=S)[nH]c(=O)c2c1C(=O)OC`
Out: 16

In: Need inhibition zone (IZ), item `COc1ccc(-c2cc(C(=O)c3ccco3)c3c(=O)[nH]c(=S)[nH]c3n2)cc1`
Out: 11

* * *

- Tested on: Neisseria gonorrhoeae
- Assay overview: Antimicrobial activity against Neisseria gonorrhoeae
- Assay type: functional
Property: inhibition zone (IZ); scope: individual molecules
Provide only the numeric value, understood in mm.

In: Need inhibition zone (IZ), item `COC(=O)c1c(-c2ccccc2)nc2[nH]c(=S)[nH]c(=O)c2c1C(=O)OC`
Out: 15

In: Need inhibition zone (IZ), item `N#Cc1cc(-c2ccccc2)nc2[nH]c(=S)[nH]c(=O)c12`
Out: 12

In: Need inhibition zone (IZ), item `COc1ccc(-c2cc(C(=O)c3cccs3)c3c(=O)[nH]c(=S)[nH]c3n2)cc1`
Out: 14

In: Need inhibition zone (IZ), item CC1(C)S[C@@H]2[C@H](NC(=O)[C@H](N)c3ccccc3)C(=O)N2[C@H]1C(=O)O [AMPICILLIN]
Out: 13

In: Need inhibition zone (IZ), item `CCOC(=O)c1cc(-c2ccccc2)nc2[nH]c(=S)[nH]c(=O)c12`
Out: 12

* * *

- Tested on: HepG2
- Assay overview: Cytotoxicity against HEPG2 cells assessed as surviving fraction at 1 ug/ml after 48 hrs by ELISA
- Type: functional, Homo sapiens
Property: Activity; scope: individual compounds
Answer using only a numeral; do not append any unit.

// known answers, use as guide
{"columns": ["Test smiles", "Tested target", "Activity"],
 "data": [
  ["COC(=O)c1c(-c2ccc(OC)cc2)nc2[nH]c(=S)[nH]c(=O)c2c1C(=O)OC", "HepG2", 0.895],
  ["CCOC(=O)c1c(-c2ccccc2)nc2[nH]c(=S)[nH]c(=O)c2c1C(=O)OCC", "HepG2", 0.968],
  ["O=C(c1cccs1)c1cc(-c2ccccc2)nc2[nH]c(=S)[nH]c(=O)c12", "HepG2", 1.05],
  ["CCOC(=O)c1cc(-c2ccc(OC)cc2)nc2[nH]c(=S)[nH]c(=O)c12", "HepG2", 1.018]
]}

For the next question, use this compound.
In: Need Activity, item `COc1ccc(-c2cc(C#N)c3c(=O)[nH]c(=S)[nH]c3n2)cc1`
Out: 1.046

These data points were gathered from ChEMBL document CHEMBL1143745.
